Experiment: Confirmatory qHTS for Identification of Small Molecule Inhibitors of Huntingtin Promoter Activity; also: nearly all actives have a fitted effect of over 65% in size; also: potency is read from the fitted curve at half-maximal effect
Settings: HEK293 HTT promoter firefly luciferase reporter, 24 h; series mostly up to 57.5 µM
Protocol: Assay Provider: Russell L. Margolis M.D. Department Neurology, Johns Hopkins University School of Medicine, Baltimore, MD Huntington's Disease (HD) is a neurodegenerative disorder caused by a CAG repeat expansion in exon 1 of huntingtin (HTT). […] 7; Detection; Luminescence; FLuc […] 1; High-throughput screening, measuring luminescence from a Hek293 luciferase reporter, was performed in 1,536 well white-walled tissue-culture treated plates. […]
Results filed as inconclusive are left out. Activity calls are given as the source filed them. Calls follow the shape of the dose curve; as a rule, active = well fitted inhibition curve with a large enough effect; inconclusive = small, poorly fitted or top-dose-only effect; inactive = no such curve, though single readings can be large or run the other way.
value.type: Potency

Previously resolved entries follow.
{"columns": ["compound", "experimental.value"],
 "data": [
  ["CCc1c(C)sc2c1CCN(Cc1ccc(F)cc1)C2c1ccccc1 (stereo not given)", "inactive"],
  ["CCN(C(=O)CSc1nc(-c2ccccc2)no1)c1cccc(C)c1", "inactive"],
  ["O=C(NCc1cccc(Cl)c1)C1CCCN(c2nn3cc(-c4ccc(F)cc4)nc3s2)C1 (stereo not given)", "12 µM (active)"],
  ["COc1cc(C[C@@H](CO)[C@H](CO)Cc2ccc(O)c(OC)c2)ccc1O", "inactive"],
  ["CCc1ccc2c(c1)-c1ccccc1S(=O)(=O)N2CC(=O)N1CCCCC1", "inactive"]
]}

// query Item CC(C)[C@H](CO)Nc1nc(Nc2ccc(C(=O)O)c(Cl)c2)c2ncn(C(C)C)c2n1 has what recorded Potency?
// result inactive

// query Item CCOc1ccc(S(=O)(=O)N(C(C)=O)c2ccc3oc(C)c(C(=O)OC)c3c2)cc1 has what recorded Potency?
// result 4.78 µM (active)

// query Item Cc1cc(SCC(=O)Nc2nsc(-c3ccc(C(C)(C)C)cc3)n2)nc2ccccc12 has what recorded Potency?
// result inactive

// query Item Cc1csc2nc(COC(=O)c3ccccc3NC(=O)c3ccccc3Cl)cc(=O)n12 has what recorded Potency?
// result inactive

// query Item Cc1cc(NC(=O)c2cc(-c3ccc(Cl)cc3)on2)nn1Cc1ccc(Cl)cc1 has what recorded Potency?
// result inactive
